B1: tRNA (parent)
chain: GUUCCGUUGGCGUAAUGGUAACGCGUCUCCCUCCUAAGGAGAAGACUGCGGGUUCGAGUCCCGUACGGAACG

# Variants of: B1
# protocol-text: yeast fitness relative to wild type (ratio to wild type); higher = fitter; tRNA-Arg(CCU), competitive growth, 37 C, YPD
Fewer inactive variants are shown than the library holds.
measurement-type: yeast fitness

>>> df
                  variant_string  measurement_type  reported_relation  result
 0                     U32C C49A     yeast fitness                  =   0.692
 1                 U2A C61U A70G     yeast fitness                  =   0.571
 2           C22A A42U G44A C62U     yeast fitness                  ≤     0.5
 3      G41C A45G G63A C66G G67C     yeast fitness                  ≤     0.5
 4                     U28G U35C     yeast fitness                  =   0.758
 5           A14G C27G A65U G68U     yeast fitness                  ≤     0.5
 6           A21U C30U C46U A69U     yeast fitness                  ≤     0.5
 7       U8C G23A G44C A45U C49A     yeast fitness                  ≤     0.5
 8           C29G C33U G50A A70C     yeast fitness                  ≤     0.5
 9                C11G C29U G52A     yeast fitness                  ≤     0.5
10                      C5A G51A     yeast fitness                  =    0.71
11           U19A C24U G38A U54C     yeast fitness                  ≤     0.5
12       G9A U35A A37U C46U A65C     yeast fitness                  =   0.633
13       G6A A15C C22G A43C G50A     yeast fitness                  ≤     0.5
14                     A21C A70C     yeast fitness                  =   0.798
15                 U3C U35C A57G     yeast fitness                  =   0.541
16                     G23C C30G     yeast fitness                  =   0.511
17                 G6A U19A G44A     yeast fitness                  ≤     0.5
18      G10A A14U A21C C29U C60A     yeast fitness                  =   0.647
19            U2G C11U A40U C49A     yeast fitness                  =   0.523
20                     C22G G48A     yeast fitness                  =   0.988
21                G18A C33U C46G     yeast fitness                  =   0.634
22                C11U U54C G56A     yeast fitness                  ≤     0.5
23      A20G A21G C29G C46G G52A     yeast fitness                  ≤     0.5
24            C5U C29A U32C C60A     yeast fitness                  =   0.596
25                     G18C A57G     yeast fitness                  =   0.715
26  G6A C33G G48A U54C C66G A70C     yeast fitness                  ≤     0.5
27           A21U U32C C49U A57C     yeast fitness                  =   0.595
